# target entity: CYP2C19 (Homo sapiens, UniProt P33261)
# Construct: Pooled human microsomes and selective CYP probe substrates were used; from tissue; host or cells: pooled human liver microsomes
# Sequence (P33261 whole entry): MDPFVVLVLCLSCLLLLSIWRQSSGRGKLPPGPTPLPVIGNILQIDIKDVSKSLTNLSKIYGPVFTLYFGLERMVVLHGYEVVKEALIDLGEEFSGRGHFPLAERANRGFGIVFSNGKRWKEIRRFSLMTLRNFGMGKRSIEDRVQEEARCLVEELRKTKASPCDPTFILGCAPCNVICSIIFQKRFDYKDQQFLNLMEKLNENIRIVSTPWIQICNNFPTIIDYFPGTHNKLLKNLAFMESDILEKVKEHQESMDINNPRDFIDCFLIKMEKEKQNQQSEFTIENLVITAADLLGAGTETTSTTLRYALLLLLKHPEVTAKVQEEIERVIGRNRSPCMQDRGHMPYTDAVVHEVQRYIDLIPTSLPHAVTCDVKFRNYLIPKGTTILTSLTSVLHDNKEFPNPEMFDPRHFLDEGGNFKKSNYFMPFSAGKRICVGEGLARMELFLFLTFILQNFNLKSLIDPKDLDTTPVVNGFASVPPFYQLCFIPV
# experiment description: Time-dependent inhibition of CYP2C19 in human liver microsomes
# Type: in vitro ADME
# condition info: CYP2C19, 25 μM, fold change
assay endpoint: (% Activity NADPH T0)/(% Activity NADPH T30)

CC(C)N1CC(=O)N(Cc2ccc(C(F)(F)F)cc2)C2(CN(c3cccnn3)C2)C1=O ... 1.0
C[C@H]1CC[C@H](N2CC(=O)N(Cc3ccc(F)c(F)c3)C3(CN(C=O)C3)C2=O)CC1 ... 1.4
C[C@H]1CC[C@H](N2CC(=O)N(Cc3ccc(F)c(F)c3)C3(CN(C(N)=O)C3)C2=O)CC1 ... 1.2
CC(C)N1CC(=O)N(Cc2ccc(Cl)c(F)c2)C2(CN(c3cccnn3)C2)C1=O ... 0.9
Cc1cc(CN2C(=O)CN([C@H]3CC[C@H](C)CC3)C(=O)C23CN(C(N)=O)C3)ccc1F ... 1.2
C[C@H]1CC[C@H](N2CC(=O)N(Cc3ccc(F)c(Cl)c3)C3(CN(C(N)=O)C3)C2=O)CC1 ... 1.0
C[C@H]1CC[C@H](N2CC(=O)N(Cc3ccc(Cl)cc3)C3(CN(C(N)=O)C3)C2=O)CC1 ... 1.0

* * *

# experiment description: Dog single dose pharmacokinetics
# Assay type: in vivo, beagle dogs
# condition info: male, beagle, plasma, IV, read-out: Vss
assay endpoint: Vd (L/kg)

1. C[C@H]1CC[C@H](N2CC(=O)N(Cc3ccc(Cl)cc3)C3(CN(C(N)=O)C3)C2=O)CC1
2. CC(C)N1CC(=O)N(Cc2ccc(C(F)(F)F)cc2)C2(CN(c3cccnn3)C2)C1=O
// select label with min value of measured Vd from [ 1 , 2 ] // respond with label for picked entry
2
(2: 2.85 L/kg, 1: 5.73 L/kg)

* * *

# target entity: CYP2D6 (Homo sapiens, UniProt P10635)
# Construct: Pooled human microsomes and selective CYP probe substrates were used; from tissue; host or cells: pooled human liver microsomes
# Sequence (P10635 whole entry): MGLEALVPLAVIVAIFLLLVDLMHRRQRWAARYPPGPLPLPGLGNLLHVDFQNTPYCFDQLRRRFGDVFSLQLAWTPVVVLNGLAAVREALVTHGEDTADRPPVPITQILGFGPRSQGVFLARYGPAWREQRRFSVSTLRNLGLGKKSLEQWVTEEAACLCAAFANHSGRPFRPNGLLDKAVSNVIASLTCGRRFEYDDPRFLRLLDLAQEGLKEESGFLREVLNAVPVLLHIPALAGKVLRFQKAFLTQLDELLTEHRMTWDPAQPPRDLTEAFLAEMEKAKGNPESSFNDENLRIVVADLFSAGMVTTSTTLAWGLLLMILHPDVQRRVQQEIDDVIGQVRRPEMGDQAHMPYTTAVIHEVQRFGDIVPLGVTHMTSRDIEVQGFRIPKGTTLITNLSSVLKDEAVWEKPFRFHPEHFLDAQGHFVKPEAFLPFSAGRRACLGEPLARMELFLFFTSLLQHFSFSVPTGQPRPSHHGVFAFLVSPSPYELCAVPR
# experiment description: Time-dependent inhibition of CYP2D6 in human liver microsomes
# Format: in vitro ADME
# condition info: pooled human liver microsomes; CYP2D6, 50 μM, human liver microsomes, time zero; read-out: % Activity NADPH T0
assay endpoint: activity at 0 min, 50 µM (%)

C[C@H]1CC[C@H](N2CC(=O)N(Cc3ccc(F)c(F)c3)C3(CN(C(N)=O)C3)C2=O)CC1 ... 94
C[C@H]1CC[C@H](N2CC(=O)N(Cc3ccc(Cl)cc3)C3(CN(C(N)=O)C3)C2=O)CC1 ... 104
C[C@H]1CC[C@H](N2CC(=O)N(Cc3ccc(F)c(Cl)c3)C3(CN(C(N)=O)C3)C2=O)CC1 ... 87
Cc1cc(CN2C(=O)CN([C@H]3CC[C@H](C)CC3)C(=O)C23CN(C(N)=O)C3)ccc1F ... 107
CC(C)N1CC(=O)N(Cc2ccc(Cl)c(F)c2)C2(CN(c3cccnn3)C2)C1=O ... 87
CC(C)N1CC(=O)N(Cc2ccc(C(F)(F)F)cc2)C2(CN(c3cccnn3)C2)C1=O ... 98

* * *

# target entity: CYP2B6 (Homo sapiens)
# Construct: Pooled human microsomes and selective CYP probe substrates were used; from tissue; host or cells: pooled human liver microsomes
# experiment description: Time-dependent inhibition of CYP2B6 in human liver microsomes
# Format: in vitro ADME
# condition info: pooled human liver microsomes; CYP2B6, 25 μM, human liver microsomes, time zero; read-out: % Activity NADPH T0
assay endpoint: activity at 0 min, 25 µM (%)

Below are worked cases with known answers.
CC(C)N1CC(=O)N(Cc2ccc(Cl)c(F)c2)C2(CN(c3cccnn3)C2)C1=O [Compound 8] ... 83
C[C@H]1CC[C@H](N2CC(=O)N(Cc3ccc(F)c(F)c3)C3(CN(C(N)=O)C3)C2=O)CC1 [Compound 5] ... 79
C[C@H]1CC[C@H](N2CC(=O)N(Cc3ccc(Cl)cc3)C3(CN(C(N)=O)C3)C2=O)CC1 [Compound 18] ... 80

A. C[C@H]1CC[C@H](N2CC(=O)N(Cc3ccc(F)c(Cl)c3)C3(CN(C(N)=O)C3)C2=O)CC1 [Compound 7]
B. CC(C)N1CC(=O)N(Cc2ccc(C(F)(F)F)cc2)C2(CN(c3cccnn3)C2)C1=O [Compound 13]
// select label with min value of measured activity at 0 min, 25 µM from [ A , B ] // respond with label for picked entry
A
(A: 70%, B: 102%)

* * *

# target entity: CYP2C19 (Homo sapiens)
# Construct: Pooled human microsomes and selective CYP probe substrates were used; from tissue; host or cells: pooled human liver microsomes
# experiment description: Time-dependent inhibition of CYP2C19 in human liver microsomes
# Format: in vitro ADME
# condition info: pooled human liver microsomes; CYP2C19, 25 μM, human liver microsomes, after 30 minutes incubation; read-out: % Activity NADPH T30
assay endpoint: activity at 30 min, 25 µM (%)

CC(C)N1CC(=O)N(Cc2ccc(Cl)c(F)c2)C2(CN(c3cccnn3)C2)C1=O ... 99
C[C@H]1CC[C@H](N2CC(=O)N(Cc3ccc(F)c(Cl)c3)C3(CN(C(N)=O)C3)C2=O)CC1 ... 87
Cc1cc(CN2C(=O)CN([C@H]3CC[C@H](C)CC3)C(=O)C23CN(C(N)=O)C3)ccc1F ... 89
C[C@H]1CC[C@H](N2CC(=O)N(Cc3ccc(Cl)cc3)C3(CN(C(N)=O)C3)C2=O)CC1 ... 99
C[C@H]1CC[C@H](N2CC(=O)N(Cc3ccc(F)c(F)c3)C3(CN(C(N)=O)C3)C2=O)CC1 ... 83
CC(C)N1CC(=O)N(Cc2ccc(C(F)(F)F)cc2)C2(CN(c3cccnn3)C2)C1=O ... 108

* * *

# experiment description: Projected single-dose CL and Vss values in humans (allometric scaling of mouse, rat, dog, monkey IV PK)
# condition info: human, projected by allometric scaling from single-dose IV PK
assay endpoint: Projected CL (mL/min/kg)

O=C1[C@H](C2COC2)N(Cc2ccc(C(F)(F)F)cc2)C(=O)CN1c1ncc(Cl)cc1F [Comparator C, reference compound] ... 3.9
CC(=O)N1CC2(C1)C(=O)N(c1ccc(C#N)cc1F)CC(=O)N2Cc1ccc(C(F)(F)F)cc1 ... 0.96

1. CC(C)N1CC(=O)N(Cc2ccc(C(F)(F)F)cc2)C2(CN(c3cccnn3)C2)C1=O
2. O=CN1CC2(C1)C(=O)N([C@H]1CC[C@H](C(F)F)CC1)CC(=O)N2Cc1ccc(C(F)(F)F)cc1
Form field 'greater Projected CL' accepts 1 or 2 ; which applies? // respond with label for picked entry
1

* * *

# target entity: CYP2B6 (Homo sapiens)
# Construct: Pooled human microsomes and selective CYP probe substrates were used; from tissue; host or cells: pooled human liver microsomes
# Sequence (P20813 1-491): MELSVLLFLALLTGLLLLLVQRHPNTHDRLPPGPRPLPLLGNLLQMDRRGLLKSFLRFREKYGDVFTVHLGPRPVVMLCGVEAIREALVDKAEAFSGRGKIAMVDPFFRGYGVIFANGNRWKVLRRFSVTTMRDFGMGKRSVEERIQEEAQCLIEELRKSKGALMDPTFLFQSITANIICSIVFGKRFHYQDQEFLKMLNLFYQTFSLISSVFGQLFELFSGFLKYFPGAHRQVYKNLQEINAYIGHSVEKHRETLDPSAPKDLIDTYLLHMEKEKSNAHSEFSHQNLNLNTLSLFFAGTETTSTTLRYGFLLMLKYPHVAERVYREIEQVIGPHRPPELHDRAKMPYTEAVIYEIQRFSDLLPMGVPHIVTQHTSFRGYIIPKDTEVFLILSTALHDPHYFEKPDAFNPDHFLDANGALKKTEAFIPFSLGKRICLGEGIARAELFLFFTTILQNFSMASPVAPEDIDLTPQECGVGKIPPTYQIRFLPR
# experiment description: Time-dependent inhibition of CYP2B6 in human liver microsomes
# Format: in vitro ADME
# condition info: pooled human liver microsomes; CYP2B6, 50 μM, human liver microsomes, after 30 minutes incubation; read-out: % Activity NADPH T30
assay endpoint: activity at 30 min, 50 µM (%)

C[C@H]1CC[C@H](N2CC(=O)N(Cc3ccc(F)c(F)c3)C3(CN(C(N)=O)C3)C2=O)CC1 ... 76
CC(C)N1CC(=O)N(Cc2ccc(Cl)c(F)c2)C2(CN(c3cccnn3)C2)C1=O ... 100
Cc1cc(CN2C(=O)CN([C@H]3CC[C@H](C)CC3)C(=O)C23CN(C(N)=O)C3)ccc1F ... 77

* * *

# experiment description: Dog cassette dosing pharmacokinetics
# Format: in vivo, beagle dogs
# condition info: male, beagle, plasma, IV
assay endpoint: clearance (mL/min/kg)

CC(C)N1CC(=O)N(Cc2ccc(C(F)(F)F)cc2)C2(CN(c3cccnn3)C2)C1=O [Compound 13] ... 11.5
CC[C@H](C)N1CC(=O)N(Cc2ccc(F)c(C)c2)C2(CN(c3cccnn3)C2)C1=O [Compound 16] ... 33
CC[C@H](C)N1CC(=O)N(Cc2ccc(F)c(F)c2)C2(CN(c3cccnn3)C2)C1=O [Compound 14] ... 36.5

a. C[C@H]1CC[C@H](N2CC(=O)N(Cc3ccc(F)cc3)C3(CN(c4cccnn4)C3)C2=O)CC1 [Compound 17]
b. CC(C)N1CC(=O)N(Cc2ccc(F)c(Cl)c2)C2(CN(c3cccnn3)C2)C1=O [Compound 9]
// select label with min value of measured clearance from [ a , b ] // respond with label for picked entry
b
